Each recorded value in this set is attributed to PubChem BioAssay AID192.

// reported T/C for each item listed
- Test system: BDF1 mice, B16 melanoma ip, median survival T/C
- assay.protocol: NCI In Vivo Anticancer Drug Screen. Data for tumor model B16 Melanoma (intraperitoneal) in B6D2F1 (BDF1) mice
- details: endpoint: median survival time; dose: 200.0 mg/kg/injection; schedule: Q01DX009 (ip); vehicle: saline with Tween-80; higher = longer survival
Inconclusive results and toxic doses are left out.

compound	target.under.test	T/C
COC1/C=C/O[C@@]2(C)Oc3c(C)c(O)c4c(O)c(cc(O)c4c3C2=O)NC(=O)/C(C)=C\C=C\[C@H](C)C(O)[C@@H](C)[C@@H](O)[C@@H](C)[C@H](OC(C)=O)[C@@H]1C (stereo not given in full)	BDF1 mice, B16 melanoma ip, median survival T/C	95 % of control
C[C@]12CC[C@H]3[C@@H](CC[C@]4(O)C[C@@H](O)CC[C@]34C=O)[C@@]1(O)CC[C@@H]2C1=CC(=O)OC1	BDF1 mice, B16 melanoma ip, median survival T/C	90 % of control
CC(c1ccccc1)N1C(=O)CSC1=S (stereo not given)	BDF1 mice, B16 melanoma ip, median survival T/C	101 % of control
CO[C@H]1C[C@@H]2CC[C@@H](C)[C@@](O)(O2)C(=O)C(=O)N2CCCC[C@H]2C(=O)O[C@H]([C@H](C)C[C@@H]2CC[C@@H](O)[C@H](OC)C2)CC(=O)[C@H](C)C=C(C)[C@@H](O)[C@@H](OC)C(=O)[C@H](C)C[C@H](C)/C=C/C=C/C=C1C	BDF1 mice, B16 melanoma ip, median survival T/C	110 % of control
NC(=O)NC1CCCC1	BDF1 mice, B16 melanoma ip, median survival T/C	112 % of control
